Attribution: patent US20230322953A1

Molecular target: T1, cynomolgus monkey BCMA (cynomolgus monkey)
T1 construct: whole, on cells; also called cyno BCMA; HEK293T/cyno BCMA cells
Experiment: flow cytometry, HEK293T/cyno BCMA cells
ATTRIBUTE_MEASURED: Maximum MFI
Form: value (number only, do not type unit).

The cases that follow already have their Maximum MFI on record.
1) PR001035, anti-BCMA HCAb antibody, clone 1005P36F3 (antibody, human IgG1, V domains shown, Heavy-chain-only antibody (HCAb), human IgG1 Fc, no light chain) VH: EVQLVETGGGLIQPGGSLRLSCAASGFTVSSNYMTWVRQAPGKGLEWVSVIFSGGSTYYADSVKGRFTISRDNSKNTLYLQMNSLRAEDTAVYYCARRIAVAGHDVFDIWGQGTMVTVSS = 10800
2) PR000274, anti-BCMA monoclonal antibody CA8-J6M0 (antibody, human IgG1, kappa, V domains shown, Control antibody; also called Positive control 1; CA8-J6M0 hIgG1) VH: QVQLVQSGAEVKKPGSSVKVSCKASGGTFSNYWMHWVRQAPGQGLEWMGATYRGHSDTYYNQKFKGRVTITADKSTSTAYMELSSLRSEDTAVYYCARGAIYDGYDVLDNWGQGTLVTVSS VL: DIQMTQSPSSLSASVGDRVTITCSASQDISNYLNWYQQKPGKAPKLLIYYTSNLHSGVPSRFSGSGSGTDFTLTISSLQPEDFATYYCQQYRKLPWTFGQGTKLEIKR = 116000
3) PR000943, anti-BCMA HCAb antibody, clone 1005P16A10 (antibody, human IgG1, V domains shown, Heavy-chain-only antibody (HCAb), human IgG1 Fc, no light chain) VH: EVQLVETGGGLIQPGGSLRLSCAASGFPVSSNYMSWVRQAPGKGLEWVSVIFSGGRTYYADSVKGRFTISRDNSKNTLYLQMNSLRAEDTAVYYCARRNWIDGRDAFDIWGQGTMVTVSS = 64000

Next binder, please.
Fill in: Maximum MFI of PR001046, anti-BCMA HCAb antibody, clone 1005P63B7 (antibody, human IgG1, V domains shown, Heavy-chain-only antibody (HCAb), human IgG1 Fc, no light chain) VH: EVQLVETGGGLIQPGGSLRLSCAASGFTVSDNYMTWVRQAPGKGLEWVSVIFSGGNTYYADSVKGRFTISRDNAKNTLYLQMNSLRAEDTALYYCARRNYDDTRGTDVFDIWGQGTMVTVSS is ___ 67700
